# Experimental system: human GPR119 (Homo sapiens, UniProt Q8TDV5)
# Construct: expressed in transfected cells; host or cells: HEK 293s
# Sequence (Q8TDV5 1-335): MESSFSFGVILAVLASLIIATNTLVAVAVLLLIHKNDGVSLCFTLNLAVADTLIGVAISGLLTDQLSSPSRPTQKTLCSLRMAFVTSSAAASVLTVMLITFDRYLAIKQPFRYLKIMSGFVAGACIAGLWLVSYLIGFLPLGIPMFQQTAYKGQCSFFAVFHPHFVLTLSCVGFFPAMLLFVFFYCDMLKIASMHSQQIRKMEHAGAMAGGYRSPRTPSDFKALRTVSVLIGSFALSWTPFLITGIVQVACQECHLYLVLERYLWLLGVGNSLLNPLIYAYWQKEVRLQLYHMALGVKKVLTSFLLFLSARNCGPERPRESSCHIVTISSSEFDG
# Assay explanation: Cyclic AMP (HTRF cAMP) assay for human GPR119, Method A
# Type: cell-based
# Condition description: HEK293S, 0.75 h; Method A; HEK 293s cells over-expressing human GPR119; percent effect at top concentration 30 μM relative to maximum (50 μM Oleoylethanolamide) and minimum (1% DMSO) controls
Recorded activation at 30 µM for the following compounds

CN1CCN(C(=O)c2ccc(COc3cnc(N4CCN(C(=O)OC(C)(C)C)CC4)nc3)cc2)CC1 [Example 51] ... 42%
Cc1cc(COc2cnc(N3CCN(C(=O)OC(C)(C)C)CC3)nc2)ccc1S(C)(=O)=O [Example 37] ... 52%

Recorded activation at 30 µM of CS(=O)(=O)c1ccc(COc2cnc(N3CCN(c4ncc(F)cn4)CC3)nc2)cc1 [Example 42] , please. 64%

Please look up its activation at 30 µM: CC(C)C(=O)Nc1ccc(COc2cnc(N3CCN(C(=O)OC(C)(C)C)CC3)nc2)cc1 [Example 14] 78%
